tested on: Neuregulin-1 EGF-like domain; experiment: binders of neuregulin-1 EGF-like domain, primary screen, biochemical, small-molecule microarray, 635 nm fluorescence (AID 1081); conditions: small-molecule microarray binding, higher = more signal;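 also: binding of the protein to compounds printed on small-molecule microarray slides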
readout_kind: composite z-score
Would you mind answering with just the numeric figure?

Below: 5 molecules and their reported composite z-score.
| molecule | composite z-score |
| --- | --- |
| COc1ccc(CCNC(=O)[C@@H]2c3ccccc3C(=O)N(Cc3cc(C(F)(F)F)cc(C(F)(F)F)c3)[C@H]2c2ccc(CO)cc2)cc1 | 0.993 |
| O=C1O[C@@H](c2ccccc2)[C@@H](c2ccccc2)N2[C@@H](c3ccc(O)cc3)[C@]3(C(=O)Nc4ccc(C#CC5(O)CCCCCC5)cc43)[C@@H](C(=O)NC[C@H](O)c3ccccc3)[C@H]12 | 0.538 |
| COC(=O)[C@@]1(Cc2ccc(F)cc2)[C@H]2c3cc(C(=O)N4CCCC4)n(CCc4ccc(O)c(O)c4)c3C[C@H]2CN1C(=O)c1ccccc1 | 1.29 |
| CCOc1cc(C(O)C2C=CC3C(=O)N(C)C(=O)C3N2Nc2ccccc2)ccc1O (configuration not stated) | 1.49 |
| COC(=O)CCCCCCC(=O)Nc1ccc(NC(=O)CCCC[P+](c2ccccc2)(c2ccccc2)c2ccccc2)cc1 | 0.166 |

Ask | Would you mind telling me what composite z-score value was observed for COCCOC(=O)N1C(=O)[C@@]2(c3cc(C#CC4=CCCCC4)ccc31)[C@H](c1ccccc1OCCO)N1[C@H](c3ccccc3)[C@H](c3ccccc3)OC(=O)[C@H]1[C@@H]2C(=O)N1CCCCCCC1 ?
Reply | 1.29

Ask | Would you mind telling me what composite z-score value was observed for CC(C)(C)OC(=O)CC[C@@]1(C(=O)NCc2ccccc2)N=C(c2ccc(OCCCO)cc2)O[C@@H]1c1ccccc1N=[N+]=[N-] ?
Reply | 0.968

---

composite z-score: recorded values
test system: Sam68 (KHDRBS1); test: Sam68 small-molecule binders, primary screen, biochemical, small-molecule microarray, 635 nm fluorescence (AID 1125); conditions: small-molecule microarray binding, higher = more signal;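 also: score merges 667 nm channel intensity with signal to noise over triplicate slides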
Would you mind answering with just the numeric figure?

| smi | composite z-score |
| --- | --- |
| CCCC[C@@H]1C[C@H]1[C@@H](NC(=O)c1ccccc1)c1ccc(C(F)(F)F)cc1 | -1.5 |
| COCCOC(=O)N1C(=O)[C@@]2(c3cc(C#CC4=CCCCC4)ccc31)[C@H](c1ccc(O)cc1)N1[C@H](c3ccccc3)[C@H](c3ccccc3)OC(=O)[C@H]1[C@@H]2C(=O)N1CCN(c2ncccn2)CC1 | -0.535 |
| O=C(NCC(F)(F)F)[C@@H]1c2ccccc2C(=O)N(Cc2cc(F)cc(C(F)(F)F)c2)[C@H]1c1ccc(CO)cc1 | -0.639 |

Consider the record given below.
Ask | Would you mind telling me what composite z-score value was observed for CC(C)N1C(=O)c2ccccc2[C@@H](C(=O)NC2CC2)[C@@H]1c1ccc(CO)cc1 ?
Reply | 0.343

---

assay: E. coli acrAB mutant growth effects, primary screen, E. coli filamentation inducers, strain DRC39, OD650, 24 h (AID 1178); details: higher = more signal, called active from +8 up or from −8 down;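 also: growth measured as culture turbidity by optical density at 650 nm; test concentration not given here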
readout_kind: z-score
Would you mind answering with just the numeric figure?

Below: 5 compounds and their reported z-score.
| compound | z-score |
| --- | --- |
| COCCOC(=O)N1C(=O)[C@@]2(c3cc(C#CCNC(N)=O)ccc31)[C@H](C(=O)N1CCc3cc(OC)c(OC)cc3C1)[C@H]1C(=O)O[C@H](c3ccccc3)[C@H](c3ccccc3)N1[C@@H]2c1ccccc1OCCO | 1.27 |
| C=CCNC(=O)[C@H]1[C@@H]2C(=O)O[C@@H](c3ccccc3)[C@@H](c3ccccc3)N2[C@@H](c2ccc(O)cc2)[C@]12C(=O)Nc1ccc(C#CC3(O)CCCCCC3)cc12 | 0.186 |
| CC(C)(C)OC(=O)CC[C@]1(C(=O)NCC(O)CO)N=C(c2ccc(OCCCO)cc2)O[C@H]1c1ccccc1 (stereo partly specified) | 1.41 |
| CC(C)Cc1ccc(CN2CC[C@@H](NC(=O)Nc3ccccc3)C2)cc1 | 0.451 |
| CCCC[C@@H]1C[C@H]1[C@@H](NC(=O)c1ccccc1)c1ccc(C(F)(F)F)cc1 | 0.1 |

Consider the record given below.
Ask | Would you mind telling me what z-score value was observed for COCCOC(=O)N1C(=O)[C@@]2(c3cc(C#CC4=CCCCC4)ccc31)[C@H](C(=O)N1CCCCCCC1)[C@H]1C(=O)O[C@H](c3ccccc3)[C@H](c3ccccc3)N1[C@@H]2c1ccc(O)cc1 ?
Reply | -0.698

---

target: Neurogenic locus notch homolog protein 2 (Homo sapiens) (UniProt Q04721); experiment: Notch2 binders on small-molecule microarrays, primary screen, biochemical, small-molecule microarray, 635 nm fluorescence, stem cell growth factors (AID 1073); settings: Notch2 binding, higher = more signal
Sequence (Q04721 whole entry, looked up): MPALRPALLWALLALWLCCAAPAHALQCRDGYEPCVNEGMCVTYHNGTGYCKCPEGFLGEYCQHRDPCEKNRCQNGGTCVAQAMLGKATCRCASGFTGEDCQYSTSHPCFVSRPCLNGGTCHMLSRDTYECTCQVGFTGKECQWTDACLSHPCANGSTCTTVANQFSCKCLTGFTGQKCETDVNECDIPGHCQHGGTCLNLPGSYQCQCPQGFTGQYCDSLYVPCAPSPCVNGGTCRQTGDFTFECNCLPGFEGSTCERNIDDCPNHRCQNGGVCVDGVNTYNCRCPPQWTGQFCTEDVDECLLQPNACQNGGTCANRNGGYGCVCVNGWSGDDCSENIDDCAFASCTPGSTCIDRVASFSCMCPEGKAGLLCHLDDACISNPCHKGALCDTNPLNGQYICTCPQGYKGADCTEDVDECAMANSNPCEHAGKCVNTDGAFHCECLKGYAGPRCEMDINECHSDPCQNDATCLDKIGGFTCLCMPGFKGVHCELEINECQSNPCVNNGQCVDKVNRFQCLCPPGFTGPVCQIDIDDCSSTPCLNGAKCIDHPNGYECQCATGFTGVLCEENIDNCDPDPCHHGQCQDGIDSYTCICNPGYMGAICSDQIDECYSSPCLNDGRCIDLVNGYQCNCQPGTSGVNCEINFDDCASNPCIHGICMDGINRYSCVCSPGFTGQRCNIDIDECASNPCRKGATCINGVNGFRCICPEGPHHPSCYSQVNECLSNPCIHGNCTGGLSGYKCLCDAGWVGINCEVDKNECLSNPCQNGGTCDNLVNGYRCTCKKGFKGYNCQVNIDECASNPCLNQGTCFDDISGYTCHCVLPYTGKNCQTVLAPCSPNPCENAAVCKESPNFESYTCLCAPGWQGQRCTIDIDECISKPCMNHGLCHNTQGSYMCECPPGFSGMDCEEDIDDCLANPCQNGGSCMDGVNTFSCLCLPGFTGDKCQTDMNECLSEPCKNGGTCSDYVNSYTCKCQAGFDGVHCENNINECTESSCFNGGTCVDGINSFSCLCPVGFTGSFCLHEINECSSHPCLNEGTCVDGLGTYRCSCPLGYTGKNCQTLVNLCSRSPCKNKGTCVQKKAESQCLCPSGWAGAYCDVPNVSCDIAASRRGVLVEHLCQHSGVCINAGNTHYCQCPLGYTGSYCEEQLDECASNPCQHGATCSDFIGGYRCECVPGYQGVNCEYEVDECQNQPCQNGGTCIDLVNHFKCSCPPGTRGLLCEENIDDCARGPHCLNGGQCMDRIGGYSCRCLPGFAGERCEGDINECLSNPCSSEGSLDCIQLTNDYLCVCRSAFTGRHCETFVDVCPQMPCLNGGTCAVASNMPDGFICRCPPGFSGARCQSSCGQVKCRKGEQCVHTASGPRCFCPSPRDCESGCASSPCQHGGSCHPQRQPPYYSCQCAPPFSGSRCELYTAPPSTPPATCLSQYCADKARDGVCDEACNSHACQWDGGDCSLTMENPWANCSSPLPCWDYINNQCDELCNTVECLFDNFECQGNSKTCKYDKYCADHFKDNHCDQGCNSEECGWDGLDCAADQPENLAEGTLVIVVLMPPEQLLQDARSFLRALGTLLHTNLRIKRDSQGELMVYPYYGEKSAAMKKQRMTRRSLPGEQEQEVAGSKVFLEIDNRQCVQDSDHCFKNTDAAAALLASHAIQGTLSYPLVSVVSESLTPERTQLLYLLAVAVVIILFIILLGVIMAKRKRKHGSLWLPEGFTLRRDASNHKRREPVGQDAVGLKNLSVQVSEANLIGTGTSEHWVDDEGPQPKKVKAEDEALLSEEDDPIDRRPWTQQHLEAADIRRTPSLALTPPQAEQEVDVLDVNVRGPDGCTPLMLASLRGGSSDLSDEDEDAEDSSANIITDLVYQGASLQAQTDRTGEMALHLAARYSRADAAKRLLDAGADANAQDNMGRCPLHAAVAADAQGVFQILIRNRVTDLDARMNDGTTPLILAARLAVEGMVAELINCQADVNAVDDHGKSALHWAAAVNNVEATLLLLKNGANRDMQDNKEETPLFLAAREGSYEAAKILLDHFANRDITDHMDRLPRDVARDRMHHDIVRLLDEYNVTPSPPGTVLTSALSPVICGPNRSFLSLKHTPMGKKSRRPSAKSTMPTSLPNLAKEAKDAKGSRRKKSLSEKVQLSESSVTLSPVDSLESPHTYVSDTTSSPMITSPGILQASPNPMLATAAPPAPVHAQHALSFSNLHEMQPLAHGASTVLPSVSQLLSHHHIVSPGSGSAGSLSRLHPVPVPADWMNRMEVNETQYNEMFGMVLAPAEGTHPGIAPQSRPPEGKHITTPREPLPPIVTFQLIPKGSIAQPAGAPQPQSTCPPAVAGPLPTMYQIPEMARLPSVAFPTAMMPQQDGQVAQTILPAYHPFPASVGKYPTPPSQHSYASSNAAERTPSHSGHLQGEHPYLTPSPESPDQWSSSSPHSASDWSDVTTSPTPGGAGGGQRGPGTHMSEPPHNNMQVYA
composite z-score: recorded values
Would you mind answering with just the numeric figure?

Below: 10 compounds and their reported composite z-score.
| compound | reading |
| --- | --- |
| CCCC[C@@H]1C[C@H]1[C@@H](NC(=O)Cc1ccccc1)c1ccc(-c2ccccc2)cc1 | 0.61 |
| CCOC(=O)C[C@H]1[C@H](OC(=O)Cc2ccc3c(c2)OCO3)[C@@H](NC(=O)Cc2ccc(OC)cc2)c2cc(OCCCO)ccc2N1C(=O)c1ccc2ccccc2n1 | 0.255 |
| O=C1OCC=C[C@H]2OC34C=CCN(Cn5nnc6ccccc65)C(=O)[C@H]3N(CCCO)C(=O)[C@@H]4[C@@H]12 (stereo not given in full) | -1.04 |
| COCCOC(=O)N1C(=O)[C@@]2(c3cc(C#CC4=CCCCC4)ccc31)[C@H](c1ccccc1OCCO)N1[C@H](c3ccccc3)[C@H](c3ccccc3)OC(=O)[C@H]1[C@@H]2C(=O)Nc1nc2ccccc2s1 | 1.23 |
| C=CC[C@]1(C(=O)O)COC(c2ccc(OCCCO)cc2)=N1 | 0.675 |
| COc1ccc(-c2cc3c(c(CCc4ccccc4)n2)[Si](C(C)C)(C(C)C)OC3)cn1 | 0.247 |
| CC(C)N1CC=CC23O[C@@H]4C=CCOC(=O)[C@@H]4[C@H]2C(=O)N(CCCO)[C@@H]3C1=O (stereo not given in full) | -0.671 |
| [N-]=[N+]=NCc1ccccc1[C@@H]1OC(c2ccc(OCCCO)cc2)=N[C@]1(CCS(=O)(=O)c1ccccc1)C(=O)NCC(O)CO (stereo not given in full) | 1.53 |
| O=C(N1CCCCC1)[C@@]1(CCS(=O)(=O)c2ccccc2)COC(c2ccc(OCCCO)cc2)=N1 | 1.03 |
| O=C(NCCCCCNC(=O)/C(Cc1ccccc1)=N/O)OCc1ccccc1 | 0.421 |

Ask | Would you mind telling me what composite z-score value was observed for C=C(C)c1cc2c(c(CCCCCC)n1)[Si](C(C)C)(C(C)C)OC2 ?
Reply | -1.03

Ask | Would you mind telling me what composite z-score value was observed for COC(=O)[C@@]1(Cc2ccc(F)cc2)[C@H]2c3cc(C(=O)N(C)C)n(Cc4cc(F)cc5c4OCOC5)c3C[C@H]2CN1C(=O)c1ccccc1 ?
Reply | 1.56

Ask | Would you mind telling me what composite z-score value was observed for COC(=O)C1=CC(CCCO)=CC(C2CC2)N(C)C=C1C(=O)OC (stereo not given) ?
Reply | 0.448

---

assay: A549 lung cancer cell viability effects, profiling panel, resazurin fluorescence, 24 h, PK04 Diversity Set (AID 1171); details: higher = more signal, called active from +8 up or from −8 down; also: test concentration not given here
The threshold is inclusive: z-score of exactly 0.02 counts as condition met; values below receive condition not met.

| compound | category_label |
| --- | --- |
| CC(C)C(=C=CC[C@H](O)c1cccc(OCCO)c1)C[C@H](O)c1cc(Cl)cc(Cl)c1O | condition met |
| COC(=O)[C@H](Cc1ccccc1)N1CC(/C=C/C2CC2)=C[C@H]1[C@H](O)Cc1ccccc1 | condition not met |
| COc1ccc(CCNC(=O)[C@@H]2c3ccccc3C(=O)N(Cc3cc(C(F)(F)F)cc(C(F)(F)F)c3)[C@H]2c2ccc(CO)cc2)cc1 | condition met |

Ask | Has COc1ccc([Si](C)(C)[C@H]2[C@H](CC(=O)N(CCO)Cc3ccccc3)O[C@@]3(C(=O)N(Cc4cccc(N5CCOC5=O)c4)c4ccccc43)[C@@H]2C)cc1 a recorded z-score greater than or equal to 0.02?
Reply | condition not met

Ask | Has O=C1OCC=C[C@H]2OC34C=CCN(Cn5nnc6ccccc65)C(=O)[C@H]3N(CCCO)C(=O)[C@@H]4[C@@H]12 (some centres not stated) a recorded z-score greater than or equal to 0.02?
Reply | condition not met

Ask | Has O=C1O[C@H](c2ccccc2)[C@H](c2ccccc2)N2[C@H]1[C@@H](C(=O)Nc1nc3ccccc3s1)[C@]1(C(=O)Nc3ccccc31)[C@H]2c1ccc(OCCO)cc1 a recorded z-score greater than or equal to 0.02?
Reply | condition met

Ask | Has [N-]=[N+]=NCc1ccccc1[C@H]1OC(c2ccc(OCCCO)cc2)=N[C@@]1(CCS(=O)(=O)c1ccccc1)C(=O)NCC(O)CO (some centres not stated) a recorded z-score greater than or equal to 0.02?
Reply | condition not met

Where these numbers come from: PubChem BioAssay
